measurement_target: NS3-NS4 protease (full-length NS3/NS4A-2) (Hepatitis C virus genotype 1a, UniProt P27958)
Construct: Recombinant E. coli or Baculovirus full-length NS3 was diluted to 3.33 μM with assay buffer; made in house; host or cells: E. coli or baculovirus (insect cells)
Sequence (P27958 1027-1657): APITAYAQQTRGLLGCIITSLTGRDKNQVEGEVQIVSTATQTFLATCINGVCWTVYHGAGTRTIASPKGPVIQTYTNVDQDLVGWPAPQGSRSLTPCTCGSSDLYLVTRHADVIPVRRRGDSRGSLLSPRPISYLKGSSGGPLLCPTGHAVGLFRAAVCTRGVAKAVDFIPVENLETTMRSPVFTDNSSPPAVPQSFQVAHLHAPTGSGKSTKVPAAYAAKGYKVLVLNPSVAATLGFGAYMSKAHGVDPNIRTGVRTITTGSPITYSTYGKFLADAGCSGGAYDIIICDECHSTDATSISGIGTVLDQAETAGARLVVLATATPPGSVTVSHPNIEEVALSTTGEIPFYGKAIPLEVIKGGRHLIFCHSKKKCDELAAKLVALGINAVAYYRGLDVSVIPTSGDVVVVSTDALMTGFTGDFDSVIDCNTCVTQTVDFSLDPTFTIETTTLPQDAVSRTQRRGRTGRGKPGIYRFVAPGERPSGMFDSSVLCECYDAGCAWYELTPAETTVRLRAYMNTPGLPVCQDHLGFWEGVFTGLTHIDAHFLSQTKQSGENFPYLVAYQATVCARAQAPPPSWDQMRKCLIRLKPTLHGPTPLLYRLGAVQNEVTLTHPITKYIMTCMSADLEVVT
experiment_notes: NS3-NS4 protease assay / NS3 inhibition assay (RETS1 substrate, fluorescence kinetic read)
Assay type: biochemical
condition_context: read-out: NS3-NS4 IC50
// values below are reported IC50

Sample records with IC50:
CCCCS(=O)(=O)NC(=O)[C@@]12C[C@H]1/C=C\CCCCC[C@H](NC(=O)OC(C)(C)C)C(=O)N1CCC[C@H]1C(=O)N2 : < 100 nM
COC(=O)C1CCCCN1S(=O)(=O)NC(=O)[C@@]12C[C@H]1/C=C\CCCCC[C@H](NC(=O)OC(C)(C)C)C(=O)N1CCC[C@H]1C(=O)N2 (some centres unmarked) : < 1000 nM
CC(C)S(=O)(=O)NC(=O)[C@@]12C[C@H]1/C=C\CCCCC[C@H](NC(=O)OC(C)(C)C)C(=O)N1CCC[C@H]1C(=O)N2 : < 10000 nM
O=C(CCC(F)(F)F)N[C@H]1CCCCC/C=C\[C@@H]2C[C@@]2(C(=O)NS(=O)(=O)C2CC2)NC(=O)[C@@H]2CCCN2C1=O : > 10000 nM
CC(C)(C)OC(=O)N[C@H]1CCCCC/C=C\[C@@H]2C[C@@]2(C(=O)O)NC(=O)C2C[C@@H](OC(=O)N3Cc4cccc(Cl)c4C3)CN2C1=O (some centres unmarked) : < 100 nM
CCc1ccc(NS(=O)(=O)NC(=O)[C@@]23C[C@H]2/C=C\CCCCC[C@H](NC(=O)OC(C)(C)C)C(=O)N2CCC[C@H]2C(=O)N3)cc1 : < 1000 nM
CCOC(=O)[C@@]12C[C@H]1/C=C\CCCCC[C@H](NC(=O)OC(C)(C)C)C(=O)N1Cc3ccc(Oc4cccc(Cl)c4)cc3CC1C(=O)N2 (some centres unmarked) : < 1000 nM
CC(C)(C)OC(=O)N[C@H]1CCCCC/C=C\[C@@H]2C[C@@]2(C(=O)NS(=O)(=O)C2CC2)NC(=O)C2C[C@@H](OC(=O)NCc3ccc(F)cn3)CN2C1=O (some centres unmarked) : < 100 nM
CC(C)(C)OC(=O)N[C@H]1CCCCC/C=C\[C@@H]2C[C@@]2(C(=O)NS(=O)(=O)Nc2ccccc2)NC(=O)[C@@H]2CCCN2C1=O : < 1000 nM
CC(C)(C)OC(=O)N[C@H]1CCCCC/C=C\[C@@H]2C[C@@]2(C(=O)NC(=O)c2ccccc2)NC(=O)[C@@H]2C[C@@H](OC(=O)N3Cc4ccccc4C3)CC2C1=O (some centres unmarked) : < 100 nM

Alright, here's another compound for you.
Sample `CO[C@@H]1C[C@H]2C(=O)N[C@]3(C(=O)NS(=O)(=O)C4CC4)C[C@H]3/C=C\CCCCC[C@H](NC(=O)OC(C)(C)C)C(=O)N2C1` ; IC50 observed: > 10000 nM

---

System: HCV sub-genomic replicon GS4.3 (HuH-7 hepatoma cells)
experiment_notes: Quantitation by ELISA of neomycin phosphotransferase II (NPTII) in the HCV sub-genomic replicon, GS4.3
Assay type: cell-based
condition_context: GS4.3 cells, 72 h; read-out: Replicon EC50
Method: Quantitation by ELISA of the Selectable Marker Protein, Neomycin Phosphotransferase II (NPTII) in the HCV Sub-Genomic Replicon, GS4.3 […] 24 h prior to the assay, GS4.3 cells were collected, counted, and plated in 96-well plates (Costar 3585) at 7500 cells/well in 100 μl standard maintenance medium (above) and incubated in the conditions above. […]
# EC50 values compiled below

CC(C)(C)OC(=O)N[C@H]1CCCOC/C=C\[C@@H]2C[C@@]2(C(=O)NS(=O)(=O)C2CC2)NC(=O)[C@@H]2C[C@@H](OC(=O)N3Cc4cccc(F)c4C3)CN2C1=O [Compound 1021] : > 10 µM

Considering C[C@@H](NC(=O)O[C@@H]1C[C@H]2C(=O)N[C@]3(C(=O)NS(=O)(=O)C4CC4)C[C@H]3/C=C\CCCCC[C@H](NC(=O)OC(C)(C)C)C(=O)N2C1)c1ccc(F)cn1 [Compound 150] , its EC50 with HCV sub-genomic replicon GS4.3 (HuH-7 hepatoma cells) was recorded as > 10 µM

Hello, the source for this data is patent US8299021B2, in case you need it.
